Test system: RARb homodimer (NR concentration 270 nM)
assay-comment: PBM binding z-score (relative to random genomic background probes); higher = stronger binding; sequences stand for … in GC…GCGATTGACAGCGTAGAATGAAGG
observation-type: PBM binding z-score
Please give the numeric answer without any surrounding text.

// known answers, use as guide
AGTCAAAGTTCATCTAGATAACGTAAGATATGCT :: 3.87
ACAGACAGGGGAGTGAAGGTAACTCAGCTGGACG :: 0.179
CCGAGTAGGTTATGGCGCATTCAGGCAACGGTGA :: 0.598
TCTTGTAGATCAAATGTTAAGAAAGCCGAAGCCT :: -0.797
AATACAGGGTCACTAGGCCACAGTAGGTACGAAT :: 3.36

Per the records, this sequence ( `CCTTACGGGTCAAGGTTATAGCACGGGTGGTACG` ) has PBM binding z-score equal to 3.41

Per the records, this sequence ( `ATCGAAAGGTCGAGGGTGAGTATACCCACCCGAA` ) has PBM binding z-score equal to 2.59

###

System: PPARg DBDmut IVT, anti-PPARg (DBD mutation: PPARg1 K132A/R137A, NR concentration 270 nM)
assay-comment: PBM binding z-score (relative to random genomic background probes); higher = stronger binding; sequences stand for … in GC…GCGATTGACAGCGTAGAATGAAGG
observation-type: PBM binding z-score

ATATGTACGTTACATCCGGGTCATTCAGGCTATG :: 2.28

Per the records, this sequence ( `AGTCAAAGTTCGTCTAGGTAACGTAAGATATGCT` ) has PBM binding z-score equal to 0.773

Per the records, this sequence ( `CCGACTGGGGGAAGGTTACCATAACGCACAGCCA` ) has PBM binding z-score equal to 1.69

Per the records, this sequence ( `ATATGTAGGTTACGGGTCATTCAGGTTGGTTCGC` ) has PBM binding z-score equal to 4.88

Per the records, this sequence ( `CGAACTAGGTCAAGAACAGTGAATCTCCGCACGC` ) has PBM binding z-score equal to 0.438

Per the records, this sequence ( `ATACCAAGGTGATCGTGAGGTCGTTAATACTAAC` ) has PBM binding z-score equal to 0.441

###

Test system: PPARg:RXRa 90nM:30nM, anti-RXR (NR concentration 90 nM, RXRa partner concentration 30 nM)
assay-comment: PBM binding z-score (relative to random genomic background probes); higher = stronger binding; sequences stand for … in GC…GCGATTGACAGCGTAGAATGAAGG
observation-type: PBM binding z-score
Please give the numeric answer without any surrounding text.

// known answers, use as guide
CGAACTAGGGCATTGACAGGACAGTGAATAGTAA :: 1.83
CGAACTAGGTCATCAAGGACAGTGAATACATTGA :: 5.6

Below: the item to evaluate.
Per the records, this sequence ( `ATATGTAGGTTAGCTGTGGTCATTCAGACTAGGC` ) has PBM binding z-score equal to 1.89

###

System: PPARg DBDmut:RXRa IVT, anti-PPARg (DBD mutation: PPARg1 K132A/R137A, NR concentration 270 nM, RXRa partner concentration 90 nM)
assay-comment: PBM binding z-score (relative to random genomic background probes); higher = stronger binding; sequences stand for … in GC…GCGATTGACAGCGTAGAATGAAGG
Okay, here is how we bin by PBM binding z-score: small value: < 0.1; mid value: ≥ 0.1 and < 0.9; large value: ≥ 0.9

Known results for sequences:
CAAACTAGGTCAAGAGGTAAAAGTCCGCTTCCCG :: large value
CAAACTAGCTCAAGGTCAAAGTCGGTTTGTGCCA :: small value
ACAGACAGGTGAGTGAAGGTAACTCACCTGGACG :: mid value
CCTCGGATGACAACAGGAGGTCAGAGCTGCCAGA :: mid value
CCTAGTTGGTCAAGGTCACACGCGCTATAGGTAC :: mid value

Note: place this sequence into its band. Item: `CACGAAAGGTCGTGCTCAGGTGAGTATACCAAAC` mid value

Note: place this sequence into its band. Item: `CCTGCGAGGTCAATGGTCAGCTAAAGCAGCTCGC` large value

Note: place this sequence into its band. Item: `CGAACTAGGTCATGCAGGACAGTGAATACATTGA` large value

Note: place this sequence into its band. Item: `ACAGACAGGTGATGTAGGTAACTCAGGCTATCAT` mid value

Note: place this sequence into its band. Item: `ACTCGGAGGACAAAGGTCTGAGCTACGCCAGTGA` small value

Note: place this sequence into its band. Item: `TCCTGTAGATCAACAGGAGGTTAAGAAAGATCGA` small value
